system.under.test: Protein translocase subunit SecA (Escherichia coli (strain K12))
method.notes: Assay to Identify E. coli SecA ATPase Inhibitors
Type: functional
Design: scale not given: direction of the effect not stated beside the values
settings: 30 µM
Measured potencies and affinities stand elsewhere.
property: Percent Effect (%)

> print(dat)
                                    compound        property   value
 1  CC(C)c1noc(CCCC(=O)N2CCC(Cc3cccnc3)CC2)n1  Percent Effect    1.54
 2  CCC1=N[C@@]2(CC[C@@H]3CN(C(=O)NCc4ccccc4)C[C@@H]32)C(=O)N1C  Percent Effect   -5.59
 3  CCn1cc(CNC2CC(=O)N(CCc3cccc(Cl)c3)C2)cn1 (configuration not stated)  Percent Effect   -5.27
 4      Cc1cccc(C(=O)NCc2ccc(N3CCCCC3)nc2)n1  Percent Effect  -0.795
 5           COCCNC(=O)c1ccc(C)c(-n2cccc2)c1  Percent Effect    2.25
 6                    Cc1ncsc1C(=O)NCc1cccs1  Percent Effect   0.275
 7  CC(C)Cc1noc(CN(C)C(=O)C2COc3ccccc3C2)n1 (configuration not stated)  Percent Effect   -3.93
 8               Cc1cnn(CCNCc2ccc(F)cc2Cl)c1  Percent Effect   -3.52
 9  CC(=O)N(Cc1noc(C)n1)C1CCN(CCOc2ccccc2)C1 (configuration not stated)  Percent Effect   -2.68
10  NC(=O)c1csc(C(=O)N2CCCC(n3ccnc3)C2)c1 (configuration not stated)  Percent Effect   -5.24
11  O=C1CC(c2ccncc2)C2(CCN(CCO)CC2)N1 (configuration not stated)  Percent Effect   -2.64
12  CC(C)n1ccnc1C1CCN(C(=O)C2COc3ccccc3O2)CC1 (configuration not stated)  Percent Effect   -9.12

----------
Percent Effect: recorded values
system.under.test: AMP-activated protein kinase, AMPK (Homo sapiens) (UniProt P54646+O43741+P54619+Q9UGJ0+Q9Y478+Q13131+Q9UGI9)
method.notes: AMP-dependent Kinase enzyme assay. An in vitro enzyme assay that detects ADP turnover that is directly proportional to AMPK activity. This uses naive AMPK that is activated during the assay with MK-8722
Assay type: functional
Set-up: scale not given: direction of the effect not stated beside the values
settings: 30 µM
property: Percent Effect (%)

> print(dat)
                                    molecule    value
 1    Cc1nc(CN2CCC(CNC(=O)Nc3ccccn3)CC2)oc1C    -0.75
 2  CC(O)CN1CCN(C(=O)CN(C)c2ccc(Cl)cn2)CC1 (centres undefined)    -4.09
 3      CN(C)C(=O)N1CCc2c(CNc3ncccn3)cncc2C1       -1
 4  Cc1ccc(NC(=O)N2CCC(NC(=O)c3ccc(C)o3)CC2)cc1     3.14
 5  CO[C@@H]1CC[C@H]2[C@H]1OCCN2C(=O)COc1ccc(F)cc1     12.4
 6  Cn1cc(C2CC(=O)NC23CCN(CC2CC2)CC3)cn1 (centres undefined)    -4.75
 7      CC(C)Nc1ccc2nc(C3CCN(C(C)C)CC3)nn2c1    -95.9
 8  CCNc1cc2c(nn1)CCN(C(=O)c1cccc3c1OCCO3)C2    -15.3
 9        Cc1[nH]ncc1CCCNC(=O)Nc1ccc(C#N)cc1     8.53
10  COc1ccccc1CNC(=O)N1CCCC(c2nncn2C)C1 (centres undefined)    -5.69
11  CC(C)c1ccc(O)c(C(=O)N2CCN(Cc3cscn3)CC2)c1    0.162
12        Cc1cnc(C(=O)N2CCc3ncnc(C)c3CC2)cn1  -0.0548
13  O=C1[C@@H]2CCN(Cc3ccoc3)C[C@@H]2OCCN1c1ccccc1       13
14  FC(F)(F)Cn1ccnc1CN1CCOC(Cn2cccn2)C1 (centres undefined)      6.8
15  Cc1cccc(-c2ccc(C(=O)NCCN(C)C3CC3)c(=O)[nH]2)c1    -7.73
16  CS(=O)(=O)CCNC(=O)C1(c2cccc(Cl)c2)CCCCC1    0.793
17  COc1cccc(CCC2CCCN(C(=O)C3=NN(C)C(=O)CC3)C2)c1 (centres undefined)    -2.43
18  CCc1nc(C2CCCN(C(=O)c3ccc4c(c3)nnn4C)C2)no1 (centres undefined)     -4.8
19             Cc1ccn(-c2ccccc2NCc2ccccn2)n1     23.2
20  Cc1ccc(-c2cccc(-c3ccn(CCN4CCCC4)n3)c2)nn1    -1.02
21    Cc1cccc(OCCC(=O)N2CCCN(CC(N)=O)CC2)c1C    -7.09
22  CCOCC1CN(C(=O)c2cscn2)Cc2nnn(CC3CC3)c21 (centres undefined)     1.84
23  Cc1cc(C)n(C2CN(CC(=O)NCC(C)(C)N3CCOCC3)C2)n1     2.81
24  Cc1cc(CN(C)C(=O)NC2CCS(=O)(=O)C2)no1 (centres undefined)    -2.73

Entry source: ChEMBL document CHEMBL3988442
